Assay: Release rate during hair coloring (GC content after mixing developer mass with ammoniacal dye solution)
Assay type: physicochemical
Settings: 5 min after mixing developer mass (0.3% each DP) 1:1 with ammoniacal dye solution
Description: To determine the hydrolysis rate the three depot preparations DP Example 8, DP Example 9 and DP Example 10 were added to the developer mass in a concentration of in each case 0.3%. […] Samples are then taken from the hair dye solution at defined time intervals, neutralized and extracted with solvent, and the content of depot preparation and released aldehyde is determined by means of gas chromatography using an internal and external standard.
recorded.metric: Relative GC content [%] (%)

For orientation, consider the following solved cases.
> print(dat)
                                   compound          recorded.metric  data.value
1  CCCCCCCCCC(C)C=O (stereo not drawn) [2-Methylundecanal, reference compound]  Relative GC content [%]        32.8
2  CC(=O)OC(OC(C)=O)C1CCC(C)=CC1C (stereo not drawn) [DP Example 9]  Relative GC content [%]         2.5

1: CCCCCCC(OC(C)=O)OC(C)=O [DP Example 8, 1-(Acetyloxy)heptyl acetate]
2: CCCCCCC=O [Aldehyde C7, heptanal, reference compound]
3: CCCCCCCCCC(C)C(OC(C)=O)OC(C)=O (stereo not drawn) [DP Example 10, 1-(Acetyloxy)-2-methylundecyl acetate]
4: CC1=CC(C)C(C=O)CC1 (stereo not drawn) [Vertocitral, reference compound]
[in] Put the compounds in ascending order of Relative GC content [%]. List labels; respect the requested ordering.
[out] 1, 3, 2, 4
(1: 0.0%, 3: 5.1%, 2: 17.1%, 4: 33.6%)

---

Test: Release rate during hair coloring (GC content after mixing developer mass with ammoniacal dye solution)
Type: physicochemical
Settings: 30 min after mixing developer mass (0.3% each DP) 1:1 with ammoniacal dye solution
recorded.metric: Relative GC content [%] (%)

For orientation, consider the following solved cases.
> print(dat)
                                   compound  data.value
1  CCCCCCC(OC(C)=O)OC(C)=O [DP Example 8, 1-(Acetyloxy)heptyl acetate]         0.0
2  CCCCCCCCCC(C)C(OC(C)=O)OC(C)=O (stereo not drawn) [DP Example 10, 1-(Acetyloxy)-2-methylundecyl acetate]         0.0
3  CC1=CC(C)C(C=O)CC1 (stereo not drawn) [Vertocitral, reference compound]        15.7

P: CCCCCCCCCC(C)C=O (stereo not drawn) [2-Methylundecanal, reference compound]
Q: CCCCCCC=O [Aldehyde C7, heptanal, reference compound]
R: CC(=O)OC(OC(C)=O)C1CCC(C)=CC1C (stereo not drawn)
[in] hey, can you rank those compounds up there by Relative GC content [%]? biggest number first please List labels; respect the requested ordering.
[out] P, Q, R
(P: 16.4%, Q: 11.4%, R: 0.0%)

---

Assay: Release rate during hair coloring (GC content after mixing developer mass with ammoniacal dye solution)
Format: physicochemical
Settings: 20 min after mixing developer mass (0.3% each DP) 1:1 with ammoniacal dye solution
recorded.metric: Relative GC content [%] (%)

P: CCCCCCC(OC(C)=O)OC(C)=O [DP Example 8, 1-(Acetyloxy)heptyl acetate]
Q: CCCCCCCCCC(C)C=O (stereo not drawn) [2-Methylundecanal, reference compound]
[in] Which of the two items, P and Q , has the greater recorded Relative GC content [%]? Respond using the label that marks the chosen record.
[out] Q

P: CC1=CC(C)C(C=O)CC1 (stereo not drawn) [Vertocitral, reference compound]
Q: CCCCCCCCCC(C)C(OC(C)=O)OC(C)=O (stereo not drawn) [DP Example 10, 1-(Acetyloxy)-2-methylundecyl acetate]
[in] Lower Relative GC content [%]: P or Q ? Respond using the label that marks the chosen record.
[out] Q

a: CC(=O)OC(OC(C)=O)C1CCC(C)=CC1C (stereo not drawn)
b: CCCCCCC=O [Aldehyde C7, heptanal, reference compound]
[in] Which of the two items, a and b , has the greater recorded Relative GC content [%]? Respond using the label that marks the chosen record.
[out] b
(b: 12.2%, a: 0.0%)

---

Assay: Release rate during hair coloring (GC content after mixing developer mass with ammoniacal dye solution)
Format: physicochemical
Conditions: 1 min after mixing developer mass (0.3% each DP) 1:1 with ammoniacal dye solution
recorded.metric: Relative GC content [%] (%)

> print(dat)
                                   compound          recorded.metric  unit.descriptor  data.value
1  CC(=O)OC(OC(C)=O)C1CCC(C)=CC1C (stereo not drawn)  Relative GC content [%]                %        28.9

I: CC1=CC(C)C(C=O)CC1 (stereo not drawn) [Vertocitral, reference compound]
II: CCCCCCCCCC(C)C(OC(C)=O)OC(C)=O (stereo not drawn) [DP Example 10, 1-(Acetyloxy)-2-methylundecyl acetate]
[in] Which of the two items, I and II , has the greater recorded Relative GC content [%]? Respond using the label that marks the chosen record.
[out] II

1: CCCCCCCCCC(C)C=O (stereo not drawn) [2-Methylundecanal, reference compound]
2: CCCCCCC(OC(C)=O)OC(C)=O [DP Example 8, 1-(Acetyloxy)heptyl acetate]
[in] Lower Relative GC content [%]: 1 or 2 ? Respond using the label that marks the chosen record.
[out] 1

---

Test: Release rate during hair coloring (GC content after mixing developer mass with ammoniacal dye solution)
Type: physicochemical
Conditions: 10 min after mixing developer mass (0.3% each DP) 1:1 with ammoniacal dye solution
recorded.metric: Relative GC content [%] (%)

For orientation, consider the following solved cases.
> print(dat)
                                   compound  data.value
1  CCCCCCC=O [Aldehyde C7, heptanal, reference compound]        19.3
2  CC1=CC(C)C(C=O)CC1 (stereo not drawn) [Vertocitral, reference compound]        33.6
3  CCCCCCCCCC(C)C(OC(C)=O)OC(C)=O (stereo not drawn) [DP Example 10, 1-(Acetyloxy)-2-methylundecyl acetate]         2.0
4  CCCCCCCCCC(C)C=O (stereo not drawn) [2-Methylundecanal, reference compound]        47.1

P: CC(=O)OC(OC(C)=O)C1CCC(C)=CC1C (stereo not drawn)
Q: CCCCCCC(OC(C)=O)OC(C)=O [DP Example 8, 1-(Acetyloxy)heptyl acetate]
[in] Lower Relative GC content [%]: P or Q ? Respond using the label that marks the chosen record.
[out] Q

---

Test: Storage stability in soap formulation
Format: physicochemical
Conditions: stored in the dark about one month at room temperature
recorded.metric: Storage stability [%] (%)

For orientation, consider the following solved cases.
> print(dat)
                                   molecule        recorded.metric  unit.descriptor  data.value
1  CCCCCCCCCC(OC(=O)CCCCCC)OC(=O)CCCCCC [DP Example 7, 1-(Heptanoyloxy)decyl heptanoate]  Storage stability [%]                %          95
2  O=Cc1ccccc1 [Benzaldehyde, reference compound]  Storage stability [%]                %          45
3  CCCC(=O)OC(OC(=O)CCC)c1ccccc1 [DP Example 5, (Butyryloxy)(phenyl)methyl butyrate]  Storage stability [%]                %          93
4  CCCCCCCCCC=O [Aldehyde C10, Decanal, reference compound]  Storage stability [%]                %          32

A: CC(C)(C)c1ccc(CCC=O)cc1 [Bourgeonal, 4-tert-Butyldihydrocinnamaldehyde, reference compound]
B: CCCC(=O)OC(CCc1ccc(C(C)(C)C)cc1)OC(=O)CCC
[in] Lower Storage stability [%]: A or B ? Respond using the label that marks the chosen record.
[out] A
